study.system: T1, human claudin 18.2 (CLDN18.2) (human)
T1 construct: also called claudin 18 variant 2; claudin-18a2.1
T1 sequence (chain, as listed by the source limits assumed): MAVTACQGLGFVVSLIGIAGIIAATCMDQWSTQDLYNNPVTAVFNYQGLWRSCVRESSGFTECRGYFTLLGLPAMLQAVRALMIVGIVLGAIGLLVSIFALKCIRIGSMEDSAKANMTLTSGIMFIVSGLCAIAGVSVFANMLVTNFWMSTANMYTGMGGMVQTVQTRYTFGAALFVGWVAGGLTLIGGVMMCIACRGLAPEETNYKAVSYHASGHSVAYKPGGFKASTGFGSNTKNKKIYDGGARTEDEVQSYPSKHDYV
assay.name: FACS on HEK293-CLDN18.2 stable pool, FITC-based detection
measurement.type: pEC50
// pEC50: -log10(molar conc.)

Given the entry humanized anti-CLDN18.2 mAb 5-E22-H1L2 (antibody, V domains shown, Humanized VH and VL fused to the constant regions of human IgG1 heavy chain and kappa light chain) VH: QVQLVQSGVEVKKPGASVKVSCKASGYTITDNYMHWVRQAPGQGLEWIGEIYPGSGNTYFNEKFKNRATLTADKSTTTAYMELKSLQFDDTAVYFCARGFPYYAMDYWGQGTTVTVSS VL: EIVLTQSPATLSLSPGERATLSCHARQNINVWLSWYQQKPGQAPRLLIYKASNLHTGIPARFSGSGSGTDFTLTISSLEPEDFAVYYCQQGQNYPLTFGGGTKVEIK , report its measured pEC50.
6.59
